These entries and their values trace back to patent US12077503B2.

- Tested on: ducksalad (Heteranthera limosa)
- assay.method.text: Test B flooded paddy test
- Type: in vivo
- experimental.context: Flood, 250 g ai/ha; 0 to 100 scale where 0 is no effect and 100 is complete control; 13 to 15 d
- Protocol: Plant species in the flooded paddy test selected from rice (Oryra sativa), sedge, umbrella (small-flower umbrella sedge, Cyperus difformis), ducksalad (Heteranthera limosa), and barnyardgrass (Echinochloa crus-galli) were grown to the 2-leaf stage for testing. […] Treated plants and controls were maintained in a greenhouse for 13 to 15 d, after which time all species were compared to controls and visually evaluated. […]
Reported Plant response rating, Ducksalad values for a set of compounds
Respond using a number only.

Worked cases, answers included:
> print(dat)
                                   compound                          quantity  reported.measurement
1  Cc1cc(C2CNC(=O)C2C(=O)Nc2cccc(F)c2F)ccc1F (centres unmarked) [Compound 400]  Plant response rating, Ducksalad                   100
2  O=C1NCC(c2cc(C(F)(F)F)cc(C(F)(F)F)c2)C1C(=O)Nc1ccc(F)cc1F (centres unmarked) [Compound 589]  Plant response rating, Ducksalad                    70
3  C=CCOc1cccc(C2CNC(=O)C2(CC=C)C(=O)Nc2cccc(F)c2F)c1 (centres unmarked) [Compound 631]  Plant response rating, Ducksalad                     0
4  Cc1cc(C2CN(C)C(=O)C2C(=O)Nc2cccc(F)c2F)ccc1F (centres unmarked) [Compound 403]  Plant response rating, Ducksalad                   100
5  Cc1cccc(C2CN(C)C(=O)C2C(=O)Nc2ccccc2S(C)(=O)=O)c1 (centres unmarked) [Compound 668]  Plant response rating, Ducksalad                    98

Input: # value lookup — system ducksalad (Heteranthera limosa), readout Plant response rating, Ducksalad, item O=C(Nc1ccccc1F)C1C(=O)N(c2ccccc2)CC1c1cccc(C(F)(F)F)c1 (centres unmarked) [Compound 456]
Output: 0

Input: Follow-up item: CCc1cc(C2CNC(=O)C2C(=O)Nc2cccc(F)c2F)cs1 (racemic) [Compound 658]
Output: 100

Input: Also, COc1c(F)ccc(NC(=O)C2C(=O)NCC2c2cc(F)cc(F)c2)c1F (racemic) [Compound 541] please.
Output: 75

----------
- Test system: Kochia (Kochia scoparia)
- assay.method.text: Test A preemergence
- Assay type: in vivo
- experimental.context: Bassia scoparia, pre-emergence, 240 h, 500 g ai/ha, preemergence; 0 to 100 scale where 0 is no effect and 100 is complete control; read-out: Kochia plant response rating
quantity: pest or weed control at 500 g/ha (%)
Supply the numeric figure in %, leaving out any unit text.

> print(dat)
                                   compound                          quantity  reported.measurement
1  CN1CC[C@H](c2cccc(C(F)(F)F)c2)[C@@H](C(=O)Nc2cccc(F)c2Cl)C1=O  pest or weed control at 500 g/ha                    30
2  O=C1NC[C@H](c2cccc(C(F)(F)F)c2)C1C(=O)Nc1c(F)cccc1CO (stereo partly drawn)  pest or weed control at 500 g/ha                     0
3  Cc1c(F)cccc1NC(=O)[C@H]1C(=O)N(C)C[C@@H]1c1ccc(C(F)(F)F)nc1  pest or weed control at 500 g/ha                   100
4  CN1C[C@H](c2csc3ccccc23)[C@@H](C(=O)Nc2cccc(F)c2F)C1=O  pest or weed control at 500 g/ha                    70
5  O=C1NC[C@H](c2cccc(C(F)(F)F)c2)C1C(=O)Nc1ccccc1CO (stereo partly drawn)  pest or weed control at 500 g/ha                     0

For the next question, use this compound.
Input: Sample "O=C1NC[C@H](c2cccc(I)c2)[C@H]1C(=O)Nc1ccccc1F" — what was its pest or weed control at 500 g/ha?
Output: 50

----------
- Tested on: pigweed (Amaranthus retroflexus)
- assay.method.text: Test A preemergence
- Assay type: in vivo
- experimental.context: Amaranthus retroflexus, pre-emergence, 240 h, 500 g ai/ha, preemergence; visual injury rating about 10 d after treatment, 0 to 100 scale (0 no effect, 100 complete control); read-out: Pigweed plant response rating
quantity: pest or weed control at 500 g/ha (%)
Please respond with the number in % and leave the unit unwritten.

Completed entries (count: 3):
> print(dat)
                                   molecule                          quantity  measurement.units  reported.measurement
1  CSc1ccccc1NC(=O)[C@H]1C(=O)N(C)C[C@@H]1c1ccc(C)c(F)c1  pest or weed control at 500 g/ha                  %                    40
2  CN1CC(c2ccccc2OC(F)(F)C(F)F)C(C(=O)Nc2cccc(F)c2F)C1=O (stereo not shown)  pest or weed control at 500 g/ha                  %                     0
3  CN1C[C@H](c2cc(F)cc(Cl)c2)[C@@H](C(=O)Nc2cccc(F)c2F)C1=O  pest or weed control at 500 g/ha                  %                    60

Kindly consider the entry below.
Input: What does the data say about its pest or weed control at 500 g/ha? Entry: C=CCOc1cccc(C2CN(C)C(=O)C2C(=O)Nc2cccc(F)c2F)c1 (stereo not shown)
Output: 30

----------
- Tested on: giant foxtail (Setaria faberii)
- assay.method.text: Test A preemergence
- Format: in vivo
- experimental.context: 125 g ai/ha, preemergence; 0 to 100 scale (0 no effect, 100 complete control)
quantity: Plant response rating, Foxtail, Giant
Reply with the value as a number alone.

Some entries whose results are on file:
> print(dat)
                                   molecule  reported.measurement
1  CN1CC(c2ccc3c(c2)OC(F)(F)O3)C(C(=O)Nc2ccc(F)cc2F)C1=O (centres unmarked)                    90
2  O=C1NCC(c2ccccc2-c2ccccc2)C1C(=O)Nc1ccccc1F (racemic)                     0
3  Cc1cc(C2CN(C)C(=O)C2C(=O)Nc2ccccc2F)ccc1F (centres unmarked)                    90
4  O=C1NCC(c2cccc(OC(F)F)c2)C1C(=O)Nc1cccc(OC(F)F)c1 (centres unmarked)                    60

Input: Which Plant response rating, Foxtail, Giant reading was recorded for the molecule Cc1ccc(F)c(NC(=O)C2C(=O)NCC2c2ccc(F)c(F)c2)c1 (centres unmarked) ?
Output: 0

----------
Readings of pest or weed control at 62.5 g/ha for the listed compounds
- Test system: giant foxtail (Setaria faberi)
- assay.method.text: Test G Post-Emergence Protocol
- Format: in vivo
- experimental.context: Setaria faberi, post-emergence, 312 h, 62.5 g ai/ha, evaluated after 13 days, read-out: Foxtail, Giant damage rating (100=total damage to plant; 0=no damage to plant)
Give the value, in units of %, as a plain number.

> print(dat)
                                   compound                           quantity  reported.measurement
1  CN1C[C@H](c2ccc(C(F)(F)F)cc2)[C@](C)(C(=O)Nc2cccc(F)c2F)C1=O (racemic) [Compound 1406]  pest or weed control at 62.5 g/ha                     0
2  CN1C[C@@H](c2cc(Cl)nc(C(F)(F)F)c2)[C@H](C(=O)Nc2cccc(F)c2F)C1=O (racemic) [Compound 1485]  pest or weed control at 62.5 g/ha                    70

Input: Requested field: pest or weed control at 62.5 g/ha. Item: CN1C[C@@H](c2ccc(C(F)(F)F)cc2)[C@H](C(=O)Nc2ccn(C)n2)C1=O (racemic) [Compound 1615]
Output: 0

Input: Same for CN1C[C@@H](c2ccc(C(F)(F)F)cc2)[C@H](C(=O)Nc2ncc(C#N)s2)C1=O (racemic) [Compound 1528]
Output: 0

Input: Another compound to check: CN1C[C@@H](c2ccc(C(F)(F)F)cc2)[C@H](C(=O)Nc2cn[nH]c2)C1=O (racemic) [Compound 1646]
Output: 10

Input: Also, CN1C[C@@H](c2cnc(Cl)c(Cl)c2)[C@H](C(=O)Nc2cccc(F)c2F)C1=O (racemic) [Compound 1487] please.
Output: 70

Input: Request: CN1C[C@@H](c2ccc(C(F)(F)F)cc2)[C@H](C(=O)Nc2cc[nH]n2)C1=O (racemic) [Compound 1533]
Output: 0

----------
Each item that follows carries a reported pest or weed control at 250 g/ha.
- Test system: giant foxtail (Setaria faberi)
- assay.method.text: Test G Pre-Emergence Protocol
- Assay type: in vivo
- experimental.context: Setaria faberi, pre-emergence, 312 h, 250 g ai/ha, evaluated after 13 days, read-out: Foxtail, Giant damage rating (100=total damage to plant; 0=no damage to plant)
I only need the number, in %, no unit after it.

Reference set (6 entries):
> print(dat)
                                   compound  reported.measurement
1  CN1C[C@H](c2cccc(C(F)(F)F)c2)[C@@H](C(=O)Nc2cc(O)ccc2F)C1=O (racemic) [Compound 1807]                     0
2  Cc1c(NC(=O)[C@H]2C(=O)N(C)C[C@@H]2c2ccc(C(F)(F)F)cc2)cccc1C(F)(F)F (racemic) [Compound 1424]                    70
3  CN1C[C@@H](c2ccc(C(F)(F)F)cc2)[C@H](C(=O)Nc2ccc(C(F)(F)F)nc2Cl)C1=O (racemic) [Compound 1542]                    10
4  CN1C[C@H](c2cccc(C(F)(F)F)c2)[C@@H](C(=O)Nc2c(O)cccc2F)C1=O (racemic) [Compound 1808]                    70
5  CN1C[C@@H](c2cc(Cl)nc(C(F)(F)F)c2)[C@H](C(=O)Nc2cccc(F)c2F)C1=O (racemic) [Compound 1485]                    90
6  CC(C)OC(=O)c1cc([C@H]2CN(C)C(=O)[C@@H]2C(=O)Nc2ccccc2F)ccc1F (racemic) [Compound 1730]                    90

Input: Return pest or weed control at 250 g/ha measured with giant foxtail (Setaria faberi) given this compound: CN1C[C@@H](c2ccc(C(F)(F)F)cc2)[C@H](C(=O)Nc2cc[nH]n2)C1=O (racemic) [Compound 1533]
Output: 0
